In this section we review reported GI50 values for a set of molecules.
Tested on: OVCAR-8
Assay Comment: NCI tumour cell line growth inhibition, 48 h
The source made the active and inactive calls. Rule as the data show it: active = GI50 up to about 1.1 µM and inactive = higher.

See these solved cases before continuing.
Oc1cccc2cc(Br)cnc12 :: 3.45 µM (inactive)
C=C1C2C[C@@H]3O[C@H]4C[C@H]5O[C@@]6(C[C@@H]7O[C@]8(C[C@H](C)[C@@H]9O[C@@H]%10CC(C=O)O[C@@H]%10C[C@@H]9O8)C[C@H](C)[C@@H]7O6)C[C@H]5O[C@H]4[C@H](C)[C@H]3OC(=O)C[C@H]3CC[C@@H]4OC5[C@H]6O[C@]7(CC[C@H]8CC(=C)[C@H](CC[C@@H](C[C@H]1C)O2)O8)CC6O[C@@H]5[C@@H](O7)[C@H]4O3 (stereo partly specified) :: < 0.0001 µM (active)
CCO/S(=N/S(=O)(=O)c1ccccc1)c1ccccc1[N+](=O)[O-] (stereo unspecified) :: > 100 µM (inactive)
CCOC(=O)CCC(C(=O)OCC)n1nc2ccc(Nc3c(C)[n+]([O-])c4ccc(Cl)cc4[n+]3[O-])cc2n1 (stereo unspecified) :: 21.5 µM (inactive)
OC1CCC(C2C3CCCCC3C3CCCCC3C2C2CCC(O)CC2)CC1 (stereo unspecified) :: 3.72 µM (inactive)

GI50 of `COC(=O)c1c(OC)cccc1C(=O)O` on OVCAR-8?
> 100 µM (inactive)

Give OVCAR-8 GI50 for COc1cc(C2c3[nH]c4ccccc4c3[C@@H](Nc3ccc(F)cc3)[C@H]3COC(=O)N23)cc(OC)c1O (stereo partly specified)
2.7 µM (inactive)

For the record `Cc1nc2c(Cl)cc(Cl)cc2c(Cl)c1CCCl` , what value of GI50 is listed for OVCAR-8?
> 100 µM (inactive)

What is its GI50 for OVCAR-8? Entry: `CCOC(=O)NC(=O)c1cn(CCCOC(=O)NCCCCCCNC(=O)OCCCn2c(=O)c(C(=O)NC(=O)OCC)cn(C)c2=O)c(=O)n(C)c1=O`
> 100 µM (inactive)

* * *

System: SK-MEL-28
Assay Comment: NCI tumour cell line growth inhibition, 48 h
Active and inactive are the calls of the source. Rule as the data show it: active = GI50 up to about 1.1 µM and inactive = higher.
Hi there, use one of these labels in your reply, thanks! active, inactive

Recorded test outcome, item `COC(=O)[C@@H]1c2cc3c(c(O)c2[C@@H](OC)C[C@@]1(C)O)C(=O)c1c(O)cc2c(c1C3=O)OC1O[C@@]2(C)[C@H](O)[C@@H](N(C)C)[C@@H]1O`
active

For `Cc1ccc(S(=O)(=O)Nc2ccccc2C(=O)c2ccc(C)c(C)c2)cc1` , what call appears in the results of this test?
inactive

Look up the recorded call for `Cc1ccc(NC(=O)c2cccc([N+](=O)[O-])c2O)c([N+](=O)[O-])c1` in this test.
inactive

* * *

Tested on: SK-MEL-2
Assay Comment: NCI tumour cell line growth inhibition, 48 h
Calls of active or inactive are those of the source. Rule as the data show it: active = GI50 up to about 1.1 µM and inactive = higher.
Recorded GI50 values for a group of compounds are listed next.

Example cases with answers are listed next.
Cc1ccc(NC(=O)CCc2nnc3s/c(=C\c4cccc([N+](=O)[O-])c4)c(=O)n23)cc1 :: > 100 µM (inactive)
CN(CCO)CCC1COc2ccccc2O1 (stereo not given) :: > 10 µM (inactive)

Query: GI50; subject: `CC(=O)N(CCN1C(=O)c2ccccc2C1=O)CCN1C(=O)c2ccccc2C1=O`
> 100 µM (inactive)

* * *

Known GI50 of a selection of molecules
System: MOLT-4
Assay Comment: NCI tumour cell line growth inhibition, 48 h
Active and inactive are the calls of the source. Rule as the data show it: active = GI50 up to about 1.1 µM and inactive = higher.

Example results:
NC(CCSCC(F)F)C(=O)O (configuration not stated) :: > 100 µM (inactive)
Cc1cccc2nc3cccc(C(=O)NCCC[N+](C)(CCCNC(=O)c4cccc5nc6cccc(C)c6nc45)Cc4ccc([N+](=O)[O-])n4C)c3nc12 :: 0.377 µM (active)
CCOP(=O)(OCC)/C(F)=C/c1ccc(F)cc1 :: > 100 µM (inactive)
Clc1ccc(-c2cc3nc4ccccc4nc3o2)cc1 :: > 100 µM (inactive)
CC1(C)CNC(=O)C2(/C=N/C(C)(C)CNC(=O)C3(/C=N/1)CCCO3)CCCO2 (configuration not stated) :: > 10 µM (inactive)

Give its GI50 value. Item: `CC(=O)OC(=O)O/C=C\CCl`
38 µM (inactive)

Look up GI50 for this molecule: `CCN(CC)c1ccc(/N=N/c2ccc([N+](=O)[O-])cc2OC(=O)/C=C/c2ccccc2)c(OC(=O)/C=C/c2ccccc2)c1`
5.16 µM (inactive)

Quick check: GI50 of `Nc1n[n+]([O-])c2cc([N+](=O)[O-])ccc2[n+]1[O-]` ?
0.787 µM (active)

Dear colleague, I am looking for the recorded GI50 of the following molecule: Cc1ccc(-c2nc3ccccc3c(=O)n2NCC2(O)OCC(O)C(O)C2O)cc1 (configuration not stated)
> 100 µM (inactive)

Given the molecule `O=[N+]([O-])c1cccc2nc3ccccc3c(NCCC[N+]3([O-])CCCCC3)c12` , what is its reported GI50?
0.198 µM (active)

* * *

Tested on: SF-295
Assay Comment: NCI tumour cell line growth inhibition, 48 h
Active and inactive are the calls of the source. Cut-off read from the data, not from the text of the source: active = GI50 up to about 1.1 µM and inactive = higher.
In this exercise, the only acceptable responses are yes (1) = active, no (0) = inactive

Answered examples (8):
O=c1c(Cc2cccc(Cc3c(O)oc4ccccc4c3=O)c2)c(O)oc2ccccc12 :: no (0)
CCCC(=O)OC[n+]1ccc2c(C)c3[nH]c4ccc(OC)cc4c3c(C)c2c1 :: yes (1)
C=CCCCC1(C)CCNC1=S (centres undefined) :: no (0)
C[n+]1cccc(NC(=O)c2ccc(NC(=O)C34CCC(C(=O)Nc5ccc(C(=O)Nc6ccc[n+](C)c6)cc5)(CC3)CC4)cc2)c1 :: no (0)
Cc1ccc(N2C(=O)CC(=O)N(NC(=O)C(C)Oc3ccccc3C)C2=S)cc1 (centres undefined) :: no (0)
COC(=O)C1(O)c2ccccc2N=C2C1CCN2C (centres undefined) :: no (0)
Cc1cccc(/C(Br)=C2/OC(=O)c3ccccc32)c1 :: no (0)
CCCCC(C(=O)CCC(=O)Nc1ccc(Cl)cc1)C(=O)C(C)C (centres undefined) :: no (0)

// outcome(item) with item = CCCCN1C(=O)C2c3[nH]c4ccccc4c3C3CCCCC3C2C1=O.CCCCN1C(=O)C2c3[nH]c4ccccc4c3[C@@H]3CCCCC3C2C1=O (centres undefined)
no (0)

What is the recorded call for this compound in the test? `O=c1c2cccnc2n2n1Cc1ccccc1C2`
no (0)

Hi team, can someone confirm the assay call for `COc1ccc(N(C(=O)NCCO)c2ccccc2)cc1` ?
no (0)

For `CCN(CC)CCCNc1ccc([N+](=O)[O-])c2nc3ccccc3c(N)c12` , which call appears in the assay record?
yes (1)

Which outcome did this test record for the compound `CC(C)(C)C1=CC(O)(c2c3ccccc3c(C3(O)C=C(C(C)(C)C)C(=O)C(C(C)(C)C)=C3)c3ccccc23)C=C(C(C)(C)C)C1=O` ?
no (0)

* * *

Property: GI50; scope: individual molecules
System: OVCAR-8
Assay Comment: NCI tumour cell line growth inhibition, 48 h
The source made the active and inactive calls. No stated cut-off is given here; in the data, active = GI50 up to about 1.1 µM and inactive = higher.

O=C(Nc1ccccc1)OCCN=C1c2ccccc2CCc2ccccc21 :: 31.5 µM (inactive)
CN1CCN(c2ncc3c(n2)sc2c(=O)n(-c4ccccc4)cnc23)CC1 :: > 100 µM (inactive)
NC(=S)NNc1c([N+](=O)[O-])cnn(-c2ccccc2)c1=O :: 14.5 µM (inactive)
CC1(C)CCc2c(cc3c(c2O)CCC(C)(C)O3)O1 :: > 100 µM (inactive)
C[N+]12C=CC=C1C(N1CCCC1)c1scc(-c3ccccc3)c12 (stereo not drawn) :: 22.5 µM (inactive)

Entry under review: `Sc1nn2c(COc3cc(Cl)c(OCc4nnc5sc(S)nn45)cc3Cl)nnc2s1` . Reported GI50?
88.5 µM (inactive)

* * *

Test system: MDA-MB-435
Assay Comment: NCI tumour cell line growth inhibition, 48 h
Calls of active or inactive are those of the source. No stated cut-off is given here; in the data, active = GI50 up to about 1.1 µM and inactive = higher.
Field 'call' accepts Yes for active, No for inactive

// known answers, use as guide
Cn1c2ccccc2c2ccc3c(c21)C(=O)C=CC3=O :: No
Oc1ccc(/N=N/c2ccc(Cl)cc2)cc1 :: No
N#CSCC1COc2ccccc2O1 (centres undefined) :: No
O=C(N/N=C\c1ccc(Cl)cc1)Nc1ccc2ccccc2c1 :: No
Cc1cccc(/C(Br)=C2/OC(=O)c3ccccc32)c1 :: No

Call for entry `C(=C/c1nnnn1-c1ccccc1)/Nc1ccccc1` :
No

# lookup: test call for CC(C)=CCc1c(O)c(CC=C(C)C)c2oc3c(c(=O)c2c1O)C(C=C(C)C)Oc1cc(O)ccc1-3 (centres undefined)
No

* * *

System: MOLT-4
Assay Comment: NCI tumour cell line growth inhibition, 48 h
Counter-ions that a name gives are not always drawn. The source made the active and inactive calls. Rule as the data show it: active = GI50 up to about 1.1 µM and inactive = higher.
Parameter call: string, one of active, inactive

These solved cases illustrate the format of a correct answer.
COC(=O)C(=O)C1(CCC(C)=O)c2ccccc2-c2ccccc21 :: inactive
Cc1cc(Cl)ccc1N1C(=O)C(=O)C(c2nc3ccccc3o2)C(=O)C1=O :: inactive
CC1CC(=O)Nc2ccc(Cl)cc2N1C(=O)CN1CCC(CCCCN(C)C)CC1 (stereo unspecified) :: inactive
CCOC(=O)c1cc(C)nc2c1c(=O)n(-c1ccccc1)c(=O)n2CCCCN1CCN(c2ncccn2)CC1 :: inactive
OCC(O)C(O)C(O)c1nnn[nH]1 (stereo unspecified) :: inactive
CN1OC2OC(=O)OC2[C@H]1[C@H]1O[C@H](c2ccccc2)OC1(C)c1cc(OC(=O)c2ccccc2)ccc1OC(=O)c1ccccc1 (stereo partly specified) :: inactive
CC1CCCc2c1c1ccc3c(O)cccc3c1oc2=O (stereo unspecified) :: inactive
CCc1ccc2c(c1)N(CC(C)CN(C)C)c1ccccc1S2 (stereo unspecified) [ETYMEMAZINE HYDROCHLORIDE] :: active

Assay outcome for `O=C(O)CCSC(=O)Nc1ccccc1` : what was it?
inactive

For `N#C/C(=C\c1ccc(Br)cc1)c1nc(-c2cc3ccccc3oc2=O)cs1` , what call appears in the results of this test?
inactive

Please let me know the test result on file for `N=C(N)N/N=C\c1c(-c2cccc([N+](=O)[O-])c2)nc2sccn12` .
inactive

Can you look up the reported call for Brc1ccc(C2CC(c3cccc4ccccc34)=Nc3ccccc3S2)cc1 (stereo unspecified) for me?
inactive

Could you please tell me the result logged for COc1cc([C@@H]2c3cc4c(cc3[C@@H](NC(=O)c3cccc(F)c3)C3COC(=O)[C@@H]32)OCO4)cc(OC)c1O (stereo partly specified) in this assay?
active

Please indicate how the test categorized CCC(=O)N1C(=O)OCC1C(C)C (stereo unspecified) .
inactive

Please state the recorded outcome for this compound: `C/C(CC(=O)Nc1ccc(Cl)c(Cl)c1)=N/NC(=O)C[n+]1ccccc1`
inactive

Name the outcome recorded for `COc1ccc(/N=N/c2c(-c3c(OC)cc4occc4c3OC)[nH]c(=O)c(C#N)c2C)cc1` in the assay.
inactive

What did the test return for `CC1=CC(=O)/C(=C/NC(=S)Nc2ccc(S(N)(=O)=O)cc2)C(=O)O1` ?
inactive

Could you please tell me the result logged for CCOP1(=O)C=C(Sc2ccc([N+](=O)[O-])cc2[N+](=O)[O-])C(C)(C)O1 (stereo unspecified) in this assay?
inactive

For this compound, state the assay outcome: `CC(=O)N(CCN1C(=O)c2ccccc2C1=O)CCN1C(=O)c2ccccc2C1=O`
inactive

Call for entry `CC(=O)Oc1ccccc1C(=O)O` :
inactive

Could you check what this test reported for O=C(/N=C1/NCC(CN2CCN(c3ccccc3)CC2)O1)Nc1ccccc1 (stereo unspecified) ?
inactive
